# EC50 values compiled below
Assay System: Cannabinoid receptor 1 (Homo sapiens)
Sequence (P21554 whole entry): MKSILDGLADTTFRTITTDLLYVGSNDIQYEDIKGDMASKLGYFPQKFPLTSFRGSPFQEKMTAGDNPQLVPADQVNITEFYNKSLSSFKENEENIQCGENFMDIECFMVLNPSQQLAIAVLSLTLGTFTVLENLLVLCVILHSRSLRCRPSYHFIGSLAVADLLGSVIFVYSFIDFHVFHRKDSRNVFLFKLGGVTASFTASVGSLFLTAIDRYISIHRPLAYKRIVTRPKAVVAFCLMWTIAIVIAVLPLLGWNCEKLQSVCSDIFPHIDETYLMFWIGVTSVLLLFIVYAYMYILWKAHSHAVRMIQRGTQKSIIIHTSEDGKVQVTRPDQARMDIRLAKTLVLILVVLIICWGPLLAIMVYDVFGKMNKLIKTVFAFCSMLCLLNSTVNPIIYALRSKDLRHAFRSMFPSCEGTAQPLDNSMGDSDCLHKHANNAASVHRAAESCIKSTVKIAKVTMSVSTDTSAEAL
Method Notes: Agonist activity at human CB1 receptor expressed in AtT-20 cells measured every 2 secs for 2 mins by FLIPR assay
Readout: EC50 (nM)

Smiles Input | Measurement Units | Relation Qualifier | Assay Value
CCCCCn1c(C(=O)N[C@H](C(N)=O)C(C)(C)C)cc2ccccc21 | nM | > | 10000
CCCCCn1cc(C(=O)NC(C)(C)c2ccccc2)c2cccnc21 | nM | = | 35
CCCCCn1cc(C(=O)NC23CC4CC(CC(C4)C2)C3)c2cccnc21 | nM | = | 152
O=C(NC12CC3CC(CC(C3)C1)C2)c1cn(CCCCCO)c2ncccc12 | nM | > | 10000
CCCCCn1cc(C(=O)NC23CC4CC(CC(C4)C2)C3)c2ccccc21 | nM | = | 74

* * *

Assay System: UniProt:P34972
Sequence (P34972 whole entry): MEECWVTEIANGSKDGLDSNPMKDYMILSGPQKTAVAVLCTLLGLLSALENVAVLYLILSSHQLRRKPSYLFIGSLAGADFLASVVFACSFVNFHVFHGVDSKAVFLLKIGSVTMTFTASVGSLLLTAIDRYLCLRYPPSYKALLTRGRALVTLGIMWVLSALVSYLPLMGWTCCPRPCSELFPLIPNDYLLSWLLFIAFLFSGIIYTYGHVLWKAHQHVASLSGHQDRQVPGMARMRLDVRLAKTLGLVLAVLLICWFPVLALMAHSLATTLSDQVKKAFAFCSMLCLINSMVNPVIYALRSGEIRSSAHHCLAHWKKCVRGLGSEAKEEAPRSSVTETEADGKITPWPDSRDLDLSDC
Method Notes: Agonist activity at human CB2 receptor expressed in AtT-20 cells at 1 uM measured every 2 secs for 2 mins by FLIPR assay relative to control
Type: cell-based
Readout: Emax (%)

Smiles Input | Assay Value
CCCCCn1cc(C(=O)NC(C)(C)c2ccccc2)c2cccnc21 | 96
CCCCCn1cc(C(=O)N[C@H](C(=O)OC)C(C)(C)C)c2cccnc21 | 102
CC(C)(NC(=O)c1cc2ccccc2n1CCCCCO)c1ccccc1 | 88
CCCCCn1c(C(=O)N[C@H](C(N)=O)C(C)C)cc2ccccc21 | 74
CCCCCn1cc(C(=O)N[C@H](C(=O)OC)C(C)C)c2cccnc21 | 98
O=C(NC12CC3CC(CC(C3)C1)C2)c1cn(CCCCCO)c2ncccc12 | 93
CCCCCCC(C)(C)c1ccc([C@@H]2C[C@H](O)CC[C@H]2CCCO)c(O)c1 | 106
